# measurement.target: Nuclear receptor subfamily 1 group I member 2 (Rattus norvegicus) (UniProt Q9R1A7)
# Sequence (Q9R1A7 whole entry, looked up): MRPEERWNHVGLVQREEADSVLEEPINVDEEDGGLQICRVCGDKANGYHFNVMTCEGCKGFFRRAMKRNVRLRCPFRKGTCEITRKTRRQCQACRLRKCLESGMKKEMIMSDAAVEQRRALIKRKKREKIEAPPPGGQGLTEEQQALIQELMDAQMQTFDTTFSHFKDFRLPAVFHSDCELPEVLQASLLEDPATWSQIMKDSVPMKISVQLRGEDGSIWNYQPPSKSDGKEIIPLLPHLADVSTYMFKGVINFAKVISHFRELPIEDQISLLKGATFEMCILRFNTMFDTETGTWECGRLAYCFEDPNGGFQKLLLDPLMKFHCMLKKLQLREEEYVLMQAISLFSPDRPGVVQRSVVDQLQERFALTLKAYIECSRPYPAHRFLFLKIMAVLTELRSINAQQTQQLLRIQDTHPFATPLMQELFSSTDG
# assay: Rat pregnane X receptor (rPXR) activation by small molecules, qHTS assay (AID 1346983); note: % is set by controls: 0 for no effect and ±100 for the full control effect; nearly all actives have a fitted effect of over 20% in size
# test.context: rPXR luciferase reporter cells, One-Glo luminescence, 24 h; active compounds read high
# Text: National Center for Advancing Translational Sciences [NCATS] NIH Chemical Genomics Center [NCGC] U.S. Environmental Protection Agency [EPA] National Institutes of Environmental Health Sciences [NIEHS] National Toxicology Program [NTP] Assay overview: The Pregnane X receptor (PXR), a ligand activated nuclear receptor plays a critical role in the regulation of genes involved in drug metabolism and transporters. […]
Inconclusive results are not listed.
Consider the following molecules and their measured max activation readings.

molecule: O=C1CC[C@@H](C(=O)N[C@H]2C[C@@H]2c2ccccc2)N1
units.label: %
max activation: -3.97
--
molecule: CCN(CC)CC#CCOC(=O)C(O)(c1ccccc1)C1CCCCC1 (centres undefined)
units.label: %
max activation: 13
--
molecule: CC(C)(C)C(=O)OCC(=O)[C@H]1CC[C@H]2[C@@H]3CCC4=CC(=O)CC[C@]4(C)[C@H]3CC[C@]12C
units.label: %
max activation: -6.33
--
molecule: c1ccc(-n2cnnn2)cc1
units.label: %
max activation: -5.33
--
molecule: CC12CCC(C[N+](C)(CCC[N+](C)(C)C)C1)C2(C)C (centres undefined)
units.label: %
max activation: -1.76
--
molecule: OCl
units.label: %
max activation: 0.862
--
molecule: CC(C)(O/N=C(\C(=O)N[C@@H]1C(=O)N2C(C(=O)[O-])=C(C[n+]3ccccc3)CS[C@H]12)c1csc(N)n1)C(=O)O
units.label: %
max activation: 0.831
--
molecule: O=C(O)[C@@H]1C[C@H](CP(=O)(O)O)CCN1
units.label: %
max activation: -5.85
--
molecule: O=C1CCC(c2ccccc2)(C2CCN(Cc3ccccc3)CC2)C(=O)N1 (centres undefined)
units.label: %
max activation: 4.99
--
molecule: FC(F)(F)COCC(F)(F)F
units.label: %
max activation: -3.1
--
molecule: C/C=C/C1=C(C(=O)O)N2C(=O)[C@@H](NC(=O)[C@H](N)c3ccc(O)cc3)[C@H]2SC1
units.label: %
max activation: -4.1
--
molecule: CC/C=C\C/C=C\C/C=C\C/C=C\C/C=C\C/C=C\CCC(=O)O
units.label: %
max activation: -7.03
--
molecule: NC[C@H]1O[C@H](O[C@H]2[C@H](O)[C@@H](O[C@H]3O[C@H](CO)[C@@H](O)[C@H](N)[C@H]3O)[C@H](N)C[C@@H]2N)[C@H](N)C[C@@H]1O
units.label: %
max activation: 7.07
--
molecule: N#Cc1c(N(CC(=O)O)CC(=O)O)sc(C(=O)O)c1CC(=O)O
units.label: %
max activation: -5.61
--
molecule: O=C(O)/C=C/C(=O)Nc1ccc(S(=O)(=O)Nc2nccs2)cc1
units.label: %
max activation: -4.08
--
molecule: Cc1ncc(C[n+]2csc(CCO)c2C)c(N)n1
units.label: %
max activation: -0.76
--
molecule: C[C@@H]1O[C@@H](OC[C@H]2O[C@@H](Oc3c(-c4ccc(OCCO)c(OCCO)c4)oc4cc(OCCO)cc(O)c4c3=O)[C@H](O)[C@@H](O)[C@@H]2O)[C@H](O)[C@H](O)[C@H]1O
units.label: %
max activation: -1.87
--
molecule: CC[C@H]1OC(=O)C[C@@H](O)[C@H](C)[C@@H](O[C@@H]2O[C@H](C)[C@@H](O)[C@H](N(C)C)[C@H]2O)[C@@H](CCN2C[C@H](C)C[C@H](C)C2)C[C@@H](C)C(=O)/C=C/C(C)=C/[C@@H]1CO[C@@H]1O[C@H](C)[C@@H](O)[C@@H](OC)[C@H]1OC
units.label: %
max activation: -0.718
--
molecule: CC/C=C\C/C=C\C/C=C\C/C=C\C/C=C\CCCC(=O)O
units.label: %
max activation: -0.855
